# System: Bevacizumab (Avastin; anti-VEGF humanized monoclonal antibody) (Homo sapiens (humanized antibody)?)
# conditions: quartz crystal microbalance (AFFINIX Q8), velocity analysis; Bevacizumab immobilized on sensor; phosphate buffer (DPBS); aptamer 1.48-2.91 uM; sequence …
measured_parameter: Kd (µM)
Express it in µM; write the number only.

Query block: Fill in the blank: the reported Kd of CCGTGTGGTGGGGGTTGGGGGTTGTCGTTCGCCG [Bevacizumab DNA aptamer SEQ ID NO: 1] is ____.
Result block: 9.1
